# Tested on: HBV precore mutant (G1896A)
# ASSAY INFO: Antiviral testing: HBV replicative intermediates by Southern blot in Huh7 cells transfected with HBV plasmid (precore mutant)
# Assay type: cell-based
# REPORTED CONDITIONS: Hepatitis B virus, Huh-7
# Source text: The plasmid containing 1.3×HBV genome in the vector pBlueBac4.5 was used as the infectious HBV clone. This clone already had the precore mutation at G1896A. […] The nucleotide sequence of the plasmid and the point mutations generated by site directed mutagenesis were confirmed by sequencing using the ABI Prism Big Dye Terminator Cycle Sequencing Ready Reaction Kit according to the manufacturer's specifications (Perkin Elmer, Cetus Norwalk, Conn.). […]
ASSAY ENDPOINT: pIC50
On this scale, pIC50 is minus log10 of a concentration expressed in M (mol/L).

[[record]]
compound = "Nc1ccn([C@@H]2CS[C@H](CO)O2)c(=O)n1 [LMV, (−)-β-2′-deoxy-3′-thiacytidine]"
assay_endpoint = "pIC50"
observed_value = 8.30


Now examine the next entry.
Ask: Give the measured pIC50 of Nc1ncnc2c1ncn2CCOCP(=O)(O)O [ADV, adefovir] .
Reply: 6.37
